Sourced from PubChem BioAssay (EPA / NIEHS)

Target: human Beta-secretase (BACE), BACE1 (gene 23621)
Test: NVS_ENZ_hBACE: NovaScreen (NVS) Enzymatic Assay for human Beta-secretase (BACE) (AID 2283140);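 also: hits are inhibitors that reduce fluorescent substrate signal versus DMSO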
Inconclusive results are not listed. Active and inactive are the calls of the source. The calls were made as follows: active = hit-call score of the fitted dose curve at least 0.9, where 1 is the maximum; inconclusive = response in the unintended direction; inactive = score below 0.9.
Bench note: report the call from class 1 (active), class 0 (inactive)

Task item: Record request — test call for Cc1cccc(C)c1N
Reply: class 0

Task item: Input Cc1ccc(O)c(C)c1
Reply: class 0

Task item: Try the molecule CCCCCCCCCc1ccc(O)cc1
Reply: class 0

Task item: Ok, now O=C(O)C(F)(F)C(F)(F)C(F)(F)C(F)(F)C(F)(F)C(F)(F)C(F)(F)C(F)(F)F
Reply: class 1

Task item: What about this molecule? O=C(O)C(F)(F)C(F)(F)C(F)(F)C(F)(F)C(F)(F)C(F)(F)C(F)(F)C(F)(F)C(F)(F)F
Reply: class 1

Task item: Quick one: O=C(NC(=O)c1cc(F)c(F)cc1Cl)Nc1cc(F)ccc1N1CCC(C(=O)O)CC1
Reply: class 1

Task item: Okay, and Oc1ccc(C(c2ccc(O)cc2)(C(F)(F)F)C(F)(F)F)cc1 ?
Reply: class 0
